Answer each item with its documented Lw/Bw.
- target: Neutrophil elastase (Homo sapiens) (UniProt P08246)
- Sequence (P08246 whole entry): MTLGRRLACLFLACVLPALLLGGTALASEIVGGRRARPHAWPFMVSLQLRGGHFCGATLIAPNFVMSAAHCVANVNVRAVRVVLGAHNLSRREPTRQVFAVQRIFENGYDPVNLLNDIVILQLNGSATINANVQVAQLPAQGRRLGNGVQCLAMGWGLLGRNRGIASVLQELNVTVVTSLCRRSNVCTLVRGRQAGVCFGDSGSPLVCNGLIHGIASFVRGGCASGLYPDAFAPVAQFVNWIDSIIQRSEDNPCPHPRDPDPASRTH
- condition info: Lung
// no unit string in output, number only

Consider "COC(=O)c1ccc2oc(C(=O)[C@@H](NC(=O)[C@@H]3CCCN3C(=O)[C@@H](NC(=O)c3ccc(NC(=O)NS(=O)(=O)c4ccc(Cl)cc4)cc3)C(C)C)C(C)C)nc2c1" . Its measured Lw/Bw is 48

Consider "COC(=O)c1ccc2oc(C(=O)[C@@H](NC(=O)[C@@H]3CCCN3C(=O)[C@@H](NC(=O)c3ccc(NS(=O)(=O)C(F)(F)F)cc3)C(C)C)C(C)C)nc2c1" . Its measured Lw/Bw is 71

Consider "CC(C)[C@H](NC(=O)[C@@H]1CCCN1C(=O)[C@@H](NC(=O)c1ccc(C(=O)NS(=O)(=O)c2ccccc2)cc1)C(C)C)C(=O)c1nc2ccccc2o1" . Its measured Lw/Bw is 29

Consider "CC(C)[C@H](NC(=O)[C@@H]1CCCN1C(=O)[C@@H](NC(=O)c1ccc(C(=O)NS(=O)(=O)c2ccc(Cl)cc2)cc1)C(C)C)C(=O)c1nc2cc(C(N)=O)ccc2o1" . Its measured Lw/Bw is 54

Consider "COc1ccc2oc(C(=O)[C@@H](NC(=O)[C@@H]3CCCN3C(=O)[C@@H](NC(=O)c3ccc(C(=O)NS(=O)(=O)c4ccc(Cl)cc4)cc3)C(C)C)C(C)C)nc2c1" . Its measured Lw/Bw is 48

Consider "CC(C)[C@H](NC(=O)[C@@H]1CCCN1C(=O)[C@@H](NC(=O)c1ccc(NC(=O)NS(=O)(=O)c2ccccc2)cc1)C(C)C)C(=O)c1nc2ccccc2o1" . Its measured Lw/Bw is 63

Consider "CC(C)[C@H](NC(=O)[C@@H]1CCCN1C(=O)[C@@H](NC(=O)c1ccc(C(=O)NS(=O)(=O)C(C)C)cc1)C(C)C)C(=O)c1nc2ccccc2o1" . Its measured Lw/Bw is 68

Consider "COC(=O)c1ccc2oc(C(=O)[C@@H](NC(=O)[C@@H]3CCCN3C(=O)[C@@H](NC(=O)c3ccc(S(N)(=O)=O)cc3)C(C)C)C(C)C)nc2c1" . Its measured Lw/Bw is 15

Consider "COC(=O)c1ccc2oc(C(=O)[C@@H](NC(=O)[C@@H]3CCCN3C(=O)[C@@H](NC(=O)c3ccc(C(=O)NS(=O)(=O)c4ccc(Cl)cc4)cc3)C(C)C)C(C)C)nc2c1" . Its measured Lw/Bw is 67

Consider "CC(C)[C@H](NC(=O)[C@@H]1CCCN1C(=O)[C@@H](NC(=O)c1ccc(C(=O)NS(=O)(=O)c2ccc(Cl)cc2)cc1)C(C)C)C(=O)c1nc2cc(O)ccc2o1" . Its measured Lw/Bw is 38

Consider "CC(C)[C@H](NC(=O)[C@@H]1CCCN1C(=O)[C@@H](NC(=O)c1ccc(C(=O)NS(C)(=O)=O)cc1)C(C)C)C(=O)c1nc2ccccc2o1" . Its measured Lw/Bw is 87

Consider "CC(C)[C@H](NC(=O)[C@@H]1CCCN1C(=O)[C@@H](NC(=O)c1ccc(C(=O)NS(=O)(=O)c2ccc(Cl)cc2)cc1)C(C)C)C(=O)c1nc2cc(CO)ccc2o1" . Its measured Lw/Bw is 30

Consider "CC(C)[C@H](NC(=O)[C@@H]1CCCN1C(=O)[C@@H](NC(=O)c1ccc(C(=O)NS(=O)(=O)c2ccc(Cl)cc2)cc1)C(C)C)C(=O)c1nc2cc(C(=O)O)ccc2o1" . Its measured Lw/Bw is 63

====

- target: Neutrophil elastase (Homo sapiens)
- Sequence (P08246 whole entry): as above
- experiment description: Inhibition of human neutrophil elastase-catalyzed hydrolysis of the synthetic substrate MeO-Suc-Ala-Ala-Pro-Val-pNa
value kind: pKi
Would you please state pKi, meaning minus log10 of the concentration in mol/L, as a bare number?

Consider "CC(C)[C@H](NC(=O)[C@@H]1CCCN1C(=O)[C@@H](NC(=O)OCc1ccccc1)C(C)C)C(=O)c1nc2cc(C(=O)O)ccc2o1" . Its measured pKi is 8.38

Consider "COc1ccc2oc(C(=O)[C@@H](NC(=O)[C@@H]3CCCN3C(=O)[C@@H](NC(=O)OCc3ccccc3)C(C)C)C(C)C)nc2c1" . Its measured pKi is 8.72

Consider "CC(C)[C@H](NC(=O)[C@@H]1CCCN1C(=O)[C@@H](NC(=O)OCc1ccccc1)C(C)C)C(=O)c1nc2cc(CC(=O)O)ccc2o1" . Its measured pKi is 8.36

Consider "CC(C)[C@H](NC(=O)[C@@H]1CCCN1C(=O)[C@@H](NC(=O)c1ccc(C(=O)NS(C)(=O)=O)cc1)C(C)C)C(=O)c1nc2ccccc2o1" . Its measured pKi is 8.34

Consider "COC(=O)c1ccc2oc(C(=O)[C@@H](NC(=O)[C@@H]3CCCN3C(=O)[C@@H](NC(=O)c3ccc(C(=O)NS(=O)(=O)c4ccc(Cl)cc4)cc3)C(C)C)C(C)C)nc2c1" . Its measured pKi is 10.00

Consider "COC(=O)c1ccc2oc(C(=O)[C@@H](NC(=O)[C@@H]3CCCN3C(=O)[C@@H](NC(=O)c3ccc(NC(=O)NS(=O)(=O)c4ccc(Cl)cc4)cc3)C(C)C)C(C)C)nc2c1" . Its measured pKi is 10.22

Consider "COC(=O)c1ccc2nc(C(=O)[C@@H](NC(=O)[C@@H]3CCCN3C(=O)[C@@H](NC(=O)OCc3ccccc3)C(C)C)C(C)C)oc2c1" . Its measured pKi is 9.26

Consider "CC(C)[C@H](NC(=O)[C@@H]1CCCN1C(=O)[C@@H](NC(=O)OCc1ccccc1)C(C)C)C(=O)c1nc2cc(C(=O)ON)ccc2o1" . Its measured pKi is 9.00

Consider "CC(C)[C@H](NC(=O)[C@@H]1CCCN1C(=O)[C@@H](NC(=O)OCc1ccccc1)C(C)C)C(=O)c1nc2cc(CO[Si](C)(C)C(C)(C)C)ccc2o1" . Its measured pKi is 9.37

Consider "COC(=O)c1ccc2oc(C(=O)[C@@H](NC(=O)[C@@H]3CCCN3C(=O)[C@@H](NC(=O)OCc3ccccc3)C(C)C)C(C)C)nc2c1" . Its measured pKi is 9.43

Consider "CC(C)[C@H](NC(=O)[C@@H]1CCCN1C(=O)[C@@H](NC(=O)OCc1ccccc1)C(C)C)C(=O)c1nc2cc(CO)ccc2o1" . Its measured pKi is 8.62

Consider "CC(C)[C@H](NC(=O)[C@@H]1CCCN1C(=O)[C@@H](NC(=O)c1ccc(C(=O)NS(=O)(=O)c2ccc(Cl)cc2)cc1)C(C)C)C(=O)c1nc2cc(C(=O)O)ccc2o1" . Its measured pKi is 9.19

Consider "COC(=O)c1ccc2oc(C(=O)[C@@H](NC(=O)[C@@H]3CCCN3C(=O)[C@@H](NC(=O)c3ccc(NS(=O)(=O)C(F)(F)F)cc3)C(C)C)C(C)C)nc2c1" . Its measured pKi is 9.52

Consider "CC(C)[C@H](NC(=O)[C@@H]1CCCN1C(=O)[C@@H](NC(=O)OCc1ccccc1)C(C)C)C(=O)c1nc2cc(C#N)ccc2o1" . Its measured pKi is 8.74

Consider "CC(C)[C@H](NC(=O)[C@@H]1CCCN1C(=O)[C@@H](NC(=O)c1ccc(C(=O)NS(=O)(=O)c2ccc(Cl)cc2)cc1)C(C)C)C(=O)c1nc2cc(CO)ccc2o1" . Its measured pKi is 9.18

Consider "COc1ccc2oc(C(=O)[C@@H](NC(=O)[C@@H]3CCCN3C(=O)[C@@H](NC(=O)c3ccc(C(=O)NS(=O)(=O)c4ccc(Cl)cc4)cc3)C(C)C)C(C)C)nc2c1" . Its measured pKi is 9.18

Consider "CC(C)[C@H](NC(=O)[C@@H]1CCCN1C(=O)[C@@H](NC(=O)c1ccc(C(=O)NS(=O)(=O)C(C)C)cc1)C(C)C)C(=O)c1nc2ccccc2o1" . Its measured pKi is 8.82

Consider "COC(=O)Cc1ccc2oc(C(=O)[C@@H](NC(=O)[C@@H]3CCCN3C(=O)[C@@H](NC(=O)OCc3ccccc3)C(C)C)C(C)C)nc2c1" . Its measured pKi is 8.96

Consider "CC(C)[C@H](NC(=O)[C@@H]1CCCN1C(=O)[C@@H](NC(=O)c1ccc(C(=O)NS(=O)(=O)c2ccccc2)cc1)C(C)C)C(=O)c1nc2ccccc2o1" . Its measured pKi is 9.30

Consider "CC(C)[C@H](NC(=O)[C@@H]1CCCN1C(=O)[C@@H](NC(=O)c1ccc(C(=O)NS(=O)(=O)c2ccc(Cl)cc2)cc1)C(C)C)C(=O)c1nc2cc(C(N)=O)ccc2o1" . Its measured pKi is 9.70

Consider "CC(C)[C@H](NC(=O)[C@@H]1CCCN1C(=O)[C@@H](NC(=O)c1ccc(NC(=O)NS(=O)(=O)c2ccccc2)cc1)C(C)C)C(=O)c1nc2ccccc2o1" . Its measured pKi is 9.22

Consider "CC(C)[C@H](NC(=O)[C@@H]1CCCN1C(=O)[C@@H](NC(=O)OCc1ccccc1)C(C)C)C(=O)c1nc2cc(Cl)ccc2o1" . Its measured pKi is 8.96
